# maps each entry to its IC50
tested system: human soluble ENPP1 (Homo sapiens)
Construct: 20 ng of human soluble ENPP1
Sequence (P22413 103-925 limits assumed): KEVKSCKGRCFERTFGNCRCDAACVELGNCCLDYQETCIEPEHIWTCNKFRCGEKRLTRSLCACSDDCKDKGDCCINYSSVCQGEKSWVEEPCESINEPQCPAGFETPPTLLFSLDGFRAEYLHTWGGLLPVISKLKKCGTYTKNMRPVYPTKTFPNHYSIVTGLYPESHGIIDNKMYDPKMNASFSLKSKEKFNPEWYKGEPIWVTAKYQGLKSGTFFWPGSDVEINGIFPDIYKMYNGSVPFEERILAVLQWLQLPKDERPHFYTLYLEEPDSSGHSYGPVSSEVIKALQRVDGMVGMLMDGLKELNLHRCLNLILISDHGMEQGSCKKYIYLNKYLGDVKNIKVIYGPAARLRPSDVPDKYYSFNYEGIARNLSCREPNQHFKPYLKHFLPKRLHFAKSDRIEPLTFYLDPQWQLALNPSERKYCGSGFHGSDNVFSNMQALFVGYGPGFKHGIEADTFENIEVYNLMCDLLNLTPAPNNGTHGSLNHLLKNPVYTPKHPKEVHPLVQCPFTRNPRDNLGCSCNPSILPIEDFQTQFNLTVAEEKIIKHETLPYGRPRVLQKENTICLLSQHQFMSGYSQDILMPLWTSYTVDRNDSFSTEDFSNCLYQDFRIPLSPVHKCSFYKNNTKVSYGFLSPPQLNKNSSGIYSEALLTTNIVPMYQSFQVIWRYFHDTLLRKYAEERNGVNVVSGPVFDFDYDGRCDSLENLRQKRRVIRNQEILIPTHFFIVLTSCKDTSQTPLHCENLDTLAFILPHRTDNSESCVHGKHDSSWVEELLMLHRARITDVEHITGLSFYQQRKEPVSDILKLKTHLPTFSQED
experimental protocol: ENPP1 activity assay using p-Nitrophenyl-5′-TMP as a substrate
Format: biochemical
Method: ENPP1 is a transmembrane glycoprotein that hydrolyzes nucleotides and nucleotide derivatives with the formation of nucleotide-5′-monophosphates. […] The percent inhibition at each compound is calculated as follows: % inhibition=(ODMAX−ODCOMPOUND)/(ODMAX−ODMIN)*100. […] The IC50 values for percent inhibition versus compound concentration were determined by fitting the inhibition curves using a four-parameter variable slope model in GraphPad Prism® 8.
Dear colleague, please return just the value in nM, with no unit written.

Some solved entries appear below for comparison.
COc1ccc2c(ncc3ncn([C@H](C)c4ccc(S(N)(=O)=O)cn4)c32)n1
0.31
COc1ccc2c(ncc3ncn(Cc4ccc(S(N)(=O)=O)cn4)c32)n1
0.15
COc1ccc2c(n1)nc(C)c1nnn(Cc3ccc(S(N)(=O)=O)cn3)c12
7.4
COc1ccc2c(ncc3nc(C(F)(F)F)n(Cc4ccc(S(N)(=O)=O)cc4)c32)n1
1
COc1ccc2c(c1)ncc1[nH]c(=O)n([C@H](C)c3ccc(S(N)(=O)=O)cc3)c12
0.3

Lab note: need IC50 with human soluble ENPP1 (Homo sapiens) for entry COc1ccc2c(ncc3ncn(Cc4ccc(S(N)(=O)=O)c(OC)c4)c32)n1 , please look it up.
2.8

Repeat for the following compound: COc1ccc2c(ncc3ncn(Cc4ccc(S(N)(=O)=O)cc4F)c32)n1
0.1
